Measured values drawn from patent US20100331297A1 for this set.

target: ΔF508 CFTR (Homo sapiens, UniProt P13569, DEL508-508); experiment: Corrector activity, YFP halide (iodide) quenching assay in FRT cells expressing ΔF508 CFTR; format: cell-based; design: expressed in transfected cells; host or cells: Fischer rat thyroid (FRT) cells; details: FRT cells ΔF508 CFTR/YFP, 24 hours with compound at 37° C., forskolin and genistein; read-out: Corrector EC50
Sequence (P13569 with tags, fused parts or gaps DEL508-508): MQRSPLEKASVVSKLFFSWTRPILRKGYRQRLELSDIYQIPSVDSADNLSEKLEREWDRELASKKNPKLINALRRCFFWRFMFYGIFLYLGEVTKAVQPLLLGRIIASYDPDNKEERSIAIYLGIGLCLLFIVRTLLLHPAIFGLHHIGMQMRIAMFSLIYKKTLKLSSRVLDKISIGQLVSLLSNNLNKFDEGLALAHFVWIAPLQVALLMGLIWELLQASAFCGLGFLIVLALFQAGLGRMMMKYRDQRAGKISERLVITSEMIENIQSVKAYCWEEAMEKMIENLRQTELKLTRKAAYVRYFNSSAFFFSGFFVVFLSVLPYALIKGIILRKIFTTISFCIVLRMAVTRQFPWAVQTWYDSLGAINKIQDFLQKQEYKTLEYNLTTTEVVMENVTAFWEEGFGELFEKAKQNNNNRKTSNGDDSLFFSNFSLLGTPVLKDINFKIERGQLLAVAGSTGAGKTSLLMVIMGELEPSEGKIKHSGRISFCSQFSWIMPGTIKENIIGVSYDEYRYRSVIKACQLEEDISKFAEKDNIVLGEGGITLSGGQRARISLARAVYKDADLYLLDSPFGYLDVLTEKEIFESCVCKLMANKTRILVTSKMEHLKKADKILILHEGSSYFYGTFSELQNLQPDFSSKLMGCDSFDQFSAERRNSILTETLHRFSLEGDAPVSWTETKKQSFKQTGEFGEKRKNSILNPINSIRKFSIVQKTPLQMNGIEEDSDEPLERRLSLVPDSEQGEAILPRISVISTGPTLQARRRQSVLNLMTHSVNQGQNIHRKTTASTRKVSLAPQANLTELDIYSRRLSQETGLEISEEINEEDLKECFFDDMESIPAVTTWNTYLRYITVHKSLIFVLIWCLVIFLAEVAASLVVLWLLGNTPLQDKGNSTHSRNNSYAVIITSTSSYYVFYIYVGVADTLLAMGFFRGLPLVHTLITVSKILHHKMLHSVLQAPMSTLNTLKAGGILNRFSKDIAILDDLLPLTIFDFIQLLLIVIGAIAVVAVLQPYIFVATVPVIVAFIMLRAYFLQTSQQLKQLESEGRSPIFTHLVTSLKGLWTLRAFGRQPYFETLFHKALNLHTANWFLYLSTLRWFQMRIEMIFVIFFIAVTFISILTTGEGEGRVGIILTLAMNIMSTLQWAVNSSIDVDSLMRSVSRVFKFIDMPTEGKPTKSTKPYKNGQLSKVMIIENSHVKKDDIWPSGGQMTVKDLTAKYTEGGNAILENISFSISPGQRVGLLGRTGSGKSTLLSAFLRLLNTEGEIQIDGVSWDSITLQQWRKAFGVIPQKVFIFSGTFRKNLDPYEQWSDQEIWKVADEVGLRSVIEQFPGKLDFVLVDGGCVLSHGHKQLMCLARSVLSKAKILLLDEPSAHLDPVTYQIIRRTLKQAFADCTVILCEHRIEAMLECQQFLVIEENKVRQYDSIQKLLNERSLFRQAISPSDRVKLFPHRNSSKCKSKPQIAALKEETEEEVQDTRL
Listing: EC50 of selected compounds
Measured Attribute: EC50

[
  {
    "Compound": "CC(C)(C)n1nc(-c2ccccc2)c2c(N)ncnc21 [compound 8]",
    "Result": "> 15 µM"
  },
  {
    "Compound": "CCOC(=O)N1CC(n2nc(-c3ccc(Cl)cc3)c3c(N)ncnc32)C1 [compound 270]",
    "Result": "> 15 µM"
  },
  {
    "Compound": "CCC(=O)Nc1ncnc2c1c(Oc1cccc(Cl)c1)nn2C(C)(C)C [compound 339]",
    "Result": "5 to 10 µM"
  },
  {
    "Compound": "CC(=O)n1nc(-c2ccc(Cl)cc2)c2c(N)ncnc21 [compound 181]",
    "Result": "> 15 µM"
  },
  {
    "Compound": "CN1CCC(C(=O)Nc2ncnc3c2c(-c2ccc(Cl)cc2)nn3C(C)(C)C)C1 (stereo not shown) [compound 363]",
    "Result": "> 15 µM"
  },
  {
    "Compound": "Nc1ncnc2c1c(-c1ccc(Cl)cc1)nn2-c1ncccn1 [compound 251]",
    "Result": "> 15 µM"
  },
  {
    "Compound": "CCn1nc([S+]([O-])c2ccccn2)c2c(N)ncnc21 (stereo not shown) [compound 353]",
    "Result": "> 15 µM"
  },
  {
    "Compound": "CCn1nc(Sc2cccc(O)c2)c2c(N)ncnc21 [compound 250]",
    "Result": "> 15 µM"
  },
  {
    "Compound": "Nc1ncnc2c1c(Oc1cccc(Cl)c1)nn2CC(F)F [compound 263]",
    "Result": "> 15 µM"
  },
  {
    "Compound": "CC(C)(C)n1nc(Sc2cccc(C(F)(F)F)c2)c2c(N)ncnc21 [compound 244]",
    "Result": "> 15 µM"
  },
  {
    "Compound": "COC(=O)c1cnc2c(c(-c3ccc(C)cc3)nn2C(C)(C)C)c1N [compound 46]",
    "Result": "> 15 µM"
  },
  {
    "Compound": "CCn1cc(-c2ccc(C)cc2)c2c(N)cccc21 [compound 43, 1-Ethyl-3-p-tolyl-1H-indol-4-ylamine]",
    "Result": "> 15 µM"
  },
  {
    "Compound": "CC(C)(C)C(=O)Nc1ncnc2c1c(-c1ccc(Cl)cc1)cn2C(C)(C)C [compound 349]",
    "Result": "2 to 5 µM"
  },
  {
    "Compound": "CC(C)(C)n1nc(Oc2cccc(C#N)c2)c2c(N)ncnc21 [compound 201]",
    "Result": "5 to 10 µM"
  },
  {
    "Compound": "Nc1ncnc2c1c(-c1ccc(Cl)cc1)nn2C1CCCC1 [compound 247]",
    "Result": "2 to 5 µM"
  },
  {
    "Compound": "CCNC(=O)N1CC(n2nc(-c3ccc(Cl)cc3)c3c(N)ncnc32)C1 [Compound No. 275]",
    "Result": "> 15 µM"
  },
  {
    "Compound": "CC(C)(C)n1nc(-c2ccc(Cl)cc2)c2c(NC(=O)N3CCOCC3)ncnc21 [compound 268]",
    "Result": "> 15 µM"
  },
  {
    "Compound": "Nc1ncnc2c1c(Oc1cccc(Cl)c1)nn2C1CCC1 [compound 228]",
    "Result": "> 15 µM"
  },
  {
    "Compound": "CC(C)(C)n1ncc2c(NC(=O)c3ccccc3)ncnc21 [Compound No. 388]",
    "Result": "> 15 µM"
  }
]

* * *

molecular target: ΔF508 CFTR (Homo sapiens, UniProt P13569, DEL508-508); assay: Corrector activity, YFP halide (iodide) quenching assay in FRT cells expressing ΔF508 CFTR; type: cell-based; parameters: expressed in transfected cells; host or cells: Fischer rat thyroid (FRT) cells; conditions: FRT cells ΔF508 CFTR/YFP, 24 hours with compound at 37° C., forskolin and genistein; read-out: Corrector EC50
pEC50: −log10 of the molar value.
Entries annotated with measured pEC50
Measured Attribute: pEC50

[
  {
    "Compound": "CC(C)(C)n1nc(Oc2cccc(Cl)c2)c2c(NC(=O)c3ccccc3)ncnc21",
    "Measured Attribute": "pEC50",
    "Result": "< 4.82"
  },
  {
    "Compound": "CC(C)C(=O)Nc1ncnc2c1c(-c1ccc(Cl)cc1)cn2C(C)(C)C [compound 337]",
    "Measured Attribute": "pEC50",
    "Result": "> 5.70"
  },
  {
    "Compound": "CCNC(=O)N1CC(n2nc(Sc3ccccc3)c3c(N)ncnc32)C1",
    "Measured Attribute": "pEC50",
    "Result": "< 4.82"
  },
  {
    "Compound": "CN1CC(n2nc(-c3ccc(Cl)cc3)c3c(N)ncnc32)C1",
    "Measured Attribute": "pEC50",
    "Result": "< 4.82"
  }
]

* * *

molecular target: ΔF508 CFTR (Homo sapiens, UniProt P13569, DEL508-508); assay: Corrector activity, YFP halide (iodide) quenching assay in FRT cells expressing ΔF508 CFTR; format: cell-based; design: expressed in transfected cells; host or cells: Fischer rat thyroid (FRT) cells; details: FRT cells ΔF508 CFTR/YFP, 24 hours with compound at 37° C., forskolin and genistein; read-out: Corrector EC50
// EC50 lookup, one value per entry

[
  {
    "Molecule": "CCn1nc(Sc2ccc(Cl)cc2)c2c(N)ncnc21",
    "System Name": "ΔF508 CFTR (Homo sapiens, UniProt P13569, DEL508-508)",
    "EC50": "> 15 µM"
  },
  {
    "Molecule": "CC(C)(C)n1nc(Oc2ncccn2)c2c(N)ncnc21",
    "System Name": "ΔF508 CFTR (Homo sapiens, UniProt P13569, DEL508-508)",
    "EC50": "> 15 µM"
  },
  {
    "Molecule": "CC(C)(C)n1nc(-c2ccc3ccccc3c2)c2c(N)ncnc21",
    "System Name": "ΔF508 CFTR (Homo sapiens, UniProt P13569, DEL508-508)",
    "EC50": "5 to 10 µM"
  },
  {
    "Molecule": "CCn1nc(Sc2ccc(F)cc2)c2c(N)ncnc21",
    "System Name": "ΔF508 CFTR (Homo sapiens, UniProt P13569, DEL508-508)",
    "EC50": "> 15 µM"
  },
  {
    "Molecule": "CC(C)N1CC(n2nc(Sc3ccccc3)c3c(N)ncnc32)C1",
    "System Name": "ΔF508 CFTR (Homo sapiens, UniProt P13569, DEL508-508)",
    "EC50": "> 15 µM"
  },
  {
    "Molecule": "CCn1nc(Sc2cccc(C)c2)c2c(N)ncnc21",
    "System Name": "ΔF508 CFTR (Homo sapiens, UniProt P13569, DEL508-508)",
    "EC50": "5 to 10 µM"
  },
  {
    "Molecule": "COCCn1nc(-c2ccc(Cl)cc2)c2c(N)ncnc21",
    "System Name": "ΔF508 CFTR (Homo sapiens, UniProt P13569, DEL508-508)",
    "EC50": "> 15 µM"
  },
  {
    "Molecule": "CC(C)(C)n1nc(-c2ccc(O)c3ccccc23)c2c(N)ncnc21",
    "System Name": "ΔF508 CFTR (Homo sapiens, UniProt P13569, DEL508-508)",
    "EC50": "> 15 µM"
  },
  {
    "Molecule": "CCn1nc(-c2ccc(Cl)cc2)c2c(N)ncnc21 [compound 67]",
    "System Name": "ΔF508 CFTR (Homo sapiens, UniProt P13569, DEL508-508)",
    "EC50": "> 15 µM"
  },
  {
    "Molecule": "Nc1ncnc2c1c(Oc1ccccc1)nn2C1CCOC1 (stereo not shown)",
    "System Name": "ΔF508 CFTR (Homo sapiens, UniProt P13569, DEL508-508)",
    "EC50": "> 15 µM"
  },
  {
    "Molecule": "Nc1ncnc2c1c(-c1ccc(Cl)cc1)nn2C(=O)NCc1ccccc1",
    "System Name": "ΔF508 CFTR (Homo sapiens, UniProt P13569, DEL508-508)",
    "EC50": "> 15 µM"
  },
  {
    "Molecule": "Cc1cc(C)cc(Oc2nn(C(C)(C)C)c3ncnc(N)c23)c1",
    "System Name": "ΔF508 CFTR (Homo sapiens, UniProt P13569, DEL508-508)",
    "EC50": "5 to 10 µM"
  },
  {
    "Molecule": "Nc1ncnc2c1c(-c1ccc(Cl)cc1)nn2C(=O)Nc1ccccc1",
    "System Name": "ΔF508 CFTR (Homo sapiens, UniProt P13569, DEL508-508)",
    "EC50": "> 15 µM"
  }
]
